system: U2OS; assay: Multiplex assay against U2OS; type: toxicity, cell-based; settings: human, 48 h, 10 µM, compound concentration 10 uM, replicate 1
Output satisfied for Population Mitochondria Different-Phenotype (%) not less than 40%; output not satisfied otherwise.

Item CC1=C(C(=O)Nc2cc3cn[nH]c3cc2F)C(c2ccc(C(F)(F)F)cc2)CC(=O)N1 (stereo not drawn) with Population Mitochondria Different-Phenotype (%) of 40% or above?
not satisfied

Quick check: does COc1cc(Nc2nccc(-c3cnn4nc(OC)ccc34)n2)cc(C(F)(F)F)c1 have Population Mitochondria Different-Phenotype (%) greater than or equal to 40%?
not satisfied

Quick check, Population Mitochondria Different-Phenotype (%) >= 40%? COc1ccc(-c2ccc3ncc4c(c3c2)n(-c2ccc(N3CCNCC3)c(C(F)(F)F)c2)c(=O)n4C)cn1.O=C(O)/C=C\C(=O)O
satisfied

# check: Population Mitochondria Different-Phenotype (%) of CC(C)OC(=O)N1CCC(Oc2ncnc3c2cnn3-c2ccc(S(C)(=O)=O)cc2F)CC1 is greater than or equal to 40%
not satisfied

Hi team, for CN1CCN(Cc2ccc(Nc3ncc(Cl)c(Nc4ccccc4S(=O)(=O)N(C)C)n3)cc2)CC1 , is the recorded Population Mitochondria Different-Phenotype (%) at or above 40%?
satisfied

Please indicate if the recorded Population Mitochondria Different-Phenotype (%) for C[C@]12CC[C@@H]3c4ccc(O)cc4CC[C@H]3[C@@H]1CC[C@@H]2O meets or exceeds 40%.
not satisfied

Tell me whether Population Mitochondria Different-Phenotype (%) is at least 40% here: CCOC(=O)Nc1cc(-c2ccc(C)c(NS(C)(=O)=O)c2)nn2c(C)nnc12
not satisfied

Is the recorded value of Population Mitochondria Different-Phenotype (%) equal to or greater than 40% for this compound? O=c1cc(N2CCOCC2)oc2c(-c3cccc4c3sc3ccccc34)cccc12
satisfied

---

tested on: U2OS; experiment: Multiplex assay against U2OS; format: toxicity, cell-based; conditions: human, 24 h, 10 µM, compound concentration 10 uM, replicate 1
Task for the reader: assign each of the following molecules its reported Population Fragmented Nuclei (%).
Please answer using a numeric value trailed by its unit.

Using the record for C=CC(=O)Nc1cccc(Sc2nc(Nc3ccc(N4CCN(C)CC4)cc3)ncc2Cl)c1 , state its measured Population Fragmented Nuclei (%).
6%

// Input: CC(C)Oc1ccccc1C(=O)Nc1ccccc1C(=O)Nc1cccc(S(=O)(=O)C(F)(F)F)c1 . Output its Population Fragmented Nuclei (%) only.
23%

Quickly give me recorded Population Fragmented Nuclei (%) for CCc1ccc(OCc2ccccc2C(=O)Nc2ccc3nc(C)cc(N)c3c2)cc1.Cl
7%

Supply Population Fragmented Nuclei (%) value. Item: C=CC(=O)Nc1ccc2[nH]c(=O)n(C3CCN(Cc4ccc(-c5nc6cc[nH]c(=O)c6cc5-c5ccccc5)cc4)CC3)c2c1 [Borussertib]
6%

Specify measured Population Fragmented Nuclei (%) for O=c1[nH]c2ccccc2n1C1CCN(Cc2ccc(-c3[nH]c4cc5ncnc5cc4nc3-c3ccccc3)cc2)CC1 .
19%

---

test system: U2OS; assay: Multiplex assay against U2OS; type: toxicity, cell-based; conditions: human, 24 h, 10 µM, compound concentration 10 uM, replicate 1
Answer each item with its documented Population Membrane Permeable-Phenotype (%).
Give your result in % as a bare value.

Provide measured Population Membrane Permeable-Phenotype (%) on U2OS for Cl.O=C(O)c1cc(-c2ccc(C3CCNCC3)cc2)c2ccc(-c3ccc(C(F)(F)F)cc3)cc2c1 please.
4

With U2OS as the test system, provide measured Population Membrane Permeable-Phenotype (%) for this compound: COc1ccc(-c2ccc3ncc4c(c3c2)n(-c2ccc(N3CCNCC3)c(C(F)(F)F)c2)c(=O)n4C)cn1.O=C(O)/C=C\C(=O)O
100

Quote U2OS Population Membrane Permeable-Phenotype (%) for entry C=CC(=O)Nc1ccc2[nH]c(=O)n(C3CCN(Cc4ccc(-c5nc6cc[nH]c(=O)c6cc5-c5ccccc5)cc4)CC3)c2c1 .
13

---

What Population Mitochondria Different-Phenotype (%) was measured for each of the following?
system: HEK-293T; experiment: Multiplex assay against HEK293T; format: toxicity, cell-based; settings: human, 24 h, 1 µM, compound concentration 1 uM, replicate 1
Use % as the unit, but write only the number.

Supply reported Population Mitochondria Different-Phenotype (%) belonging to this compound: CCc1nn(CCCN2CCN(c3cccc(Cl)c3)CC2)c(=O)n1CCOc1ccccc1.Cl [NEFAZODONE HYDROCHLORIDE]
89

Note down Population Mitochondria Different-Phenotype (%) recorded for CCOC(=O)Nc1cc(-c2ccc(C)c(NS(C)(=O)=O)c2)nn2c(C)nnc12
2

Answer with reported Population Mitochondria Different-Phenotype (%) of CNC(=O)Nc1ccc2c(c1)[C@@]1(CC2)OC(=O)N(CC(=O)N(Cc2ccc(F)cc2)[C@@H](C)C(F)(F)F)C1=O
11

Identify the reported Population Mitochondria Different-Phenotype (%) for the following entry. Cc1ccc2c(c1)c1c(n2CCc2ccc(C)nc2)CCN(C)C1 [LATREPIRDINE]
96

Check the records and state Population Mitochondria Different-Phenotype (%) for O=c1cc(N2CCOCC2)oc2c(-c3cccc4c3sc3ccccc34)cccc12
77

Note down Population Mitochondria Different-Phenotype (%) recorded for CC(C)OC(=O)N1CCC(Oc2ncnc3c2cnn3-c2ccc(S(C)(=O)=O)cc2F)CC1
58

---

tested on: U2OS; assay: Multiplex assay against U2OS; type: toxicity, cell-based; details: human, 48 h, 1 µM, compound concentration 1 uM, replicate 2
Threshold rule: Population Mitotic Cells (%) greater than or equal to 60% is 1; below that, -1.

Has O=C(c1cc2c(cc1F)OC(c1ccc(F)cc1)(c1ccc(Cl)cc1Cl)O2)N1CCOCC1 (configuration not stated) a recorded Population Mitotic Cells (%) greater than or equal to 60%?
-1

Is Population Mitotic Cells (%) at least 60%? Consider CC(C)OC(=O)N1CCC(Oc2ncnc3c2cnn3-c2ccc(S(C)(=O)=O)cc2F)CC1
1

Does Population Mitotic Cells (%) meet or surpass 60% for CNC(=O)Nc1ccc(-c2nc(N3CC4CCC(C3)O4)c3cnn(C4CCC5(CC4)OCCO5)c3n2)cc1 ?
1

Threshold query (Population Mitotic Cells (%) >= 60%) on COc1ccccc1CN[C@H]1C2CCN(CC2)[C@H]1C(c1ccccc1)c1ccccc1 [CP-96345]
-1

Is it the case that CC1=C(C(=O)Nc2cc3cn[nH]c3cc2F)C(c2ccc(C(F)(F)F)cc2)CC(=O)N1 (configuration not stated) has Population Mitotic Cells (%) reaching or exceeding 60%?
-1

Does the compound Cc1cccc(CN2CCN(C(c3ccccc3)c3ccc(Cl)cc3)CC2)c1.Cl.Cl (configuration not stated) have recorded Population Mitotic Cells (%) that is 60% or more?
1

Reported Population Mitotic Cells (%) reaches at least 60% for Cc1c[nH]c2nccc(Oc3c(F)cc(Nc4cc(Cl)nc(N)n4)cc3F)c12 [BAY-549] ?
-1

Identify whether the reported Population Mitotic Cells (%) of the following compound is 60% or greater: CC(C)NC(=O)N1CC[C@H](NC2=Nc3cc(F)ccc3N(CC(F)F)c3ccc(Cl)cc32)C1
1

Reported Population Mitotic Cells (%) reaches at least 60% for C[C@]12CC[C@@H]3c4ccc(O)cc4CC[C@H]3[C@@H]1CC[C@@H]2O [ESTRADIOL] ?
1

Item Cc1ccc2c(c1)c1c(n2CCc2ccc(C)nc2)CCN(C)C1 [LATREPIRDINE] with Population Mitotic Cells (%) of 60% or above?
-1

Hi team, for Cc1ccc(C)c(Oc2ccncc2C(=O)N2CCN(C3CC3)c3ccccc32)c1 , is the recorded Population Mitotic Cells (%) at or above 60%?
1

Record COc1cc(Nc2nccc(-c3cnn4nc(OC)ccc34)n2)cc(C(F)(F)F)c1 ; criterion: Population Mitotic Cells (%) no lower than 60%. Met?
-1

Confirm if Population Mitotic Cells (%) reported for the compound CC(C)Oc1ccccc1C(=O)Nc1ccccc1C(=O)Nc1cccc(S(=O)(=O)C(F)(F)F)c1 is 60% or above.
-1

Could you please find out whether CN1CCN(Cc2ccc(Nc3ncc(Cl)c(Nc4ccccc4S(=O)(=O)N(C)C)n3)cc2)CC1 [DUBERMATINIB] has Population Mitotic Cells (%) that meets 60% or exceeds it?
-1

Could you verify whether the entry COc1ccc(-c2ccc3ncc4c(c3c2)n(-c2ccc(N3CCNCC3)c(C(F)(F)F)c2)c(=O)n4C)cn1.O=C(O)/C=C\C(=O)O [BGT-226] shows Population Mitotic Cells (%) of no less than 60%?
-1

Can CCc1nn(CCCN2CCN(c3cccc(Cl)c3)CC2)c(=O)n1CCOc1ccccc1.Cl [NEFAZODONE HYDROCHLORIDE] be said to have Population Mitotic Cells (%) at or above 60%?
1

Tell me whether Population Mitotic Cells (%) is at least 60% here: COc1cc2ncn(-c3cc(OCc4ccccc4C(F)(F)F)c(C(N)=O)s3)c2cc1OC [GW843682X]
-1
